Consider the following compounds; for each one, report its IC50.

In: Hi! What's the reported IC50 for `C=CC(=O)N1CCC[C@H]1Cn1nc(-c2ccc(Oc3cccc(CC)c3)cc2)c2cncnc21` on TXK (Homo sapiens, UniProt P42681)?
Out: < 0.1 µM

In: Hi! What's the reported IC50 for `C=CC(=O)N1CCC(Cn2nc(-c3ccc(Oc4ccccc4)cc3)c3cncnc32)CC1` on TXK (Homo sapiens, UniProt P42681)?
Out: > 0.5 µM

In: Hi! What's the reported IC50 for `C=CC(=O)N1CCC[C@@H](n2nc(-c3ccc(Oc4ccccc4)cc3F)c3cncnc32)C1` on TXK (Homo sapiens, UniProt P42681)?
Out: < 0.1 µM

In: Hi! What's the reported IC50 for `C=CC(=O)N1CCC[C@@H](n2nc(-c3ccc(Oc4cccc(F)c4)cc3)c3cncnc32)C1` on TXK (Homo sapiens, UniProt P42681)?
Out: < 0.1 µM

In: Hi! What's the reported IC50 for `C=CC(=O)N1CC(n2nc(-c3ccc(Oc4ccccc4)cc3)c3cncnc32)C1` on TXK (Homo sapiens, UniProt P42681)?
Out: 0.1 to 0.5 µM

In: Hi! What's the reported IC50 for `C=CC(=O)N1CC[C@H]1Cn1nc(-c2ccc(Oc3ccccc3)cc2)c2cncnc21` on TXK (Homo sapiens, UniProt P42681)?
Out: < 0.1 µM

In: Hi! What's the reported IC50 for `C=CC(=O)NCCn1nc(-c2ccc(Oc3ccccc3)cc2)c2cncnc21` on TXK (Homo sapiens, UniProt P42681)?
Out: > 0.5 µM

In: Hi! What's the reported IC50 for `C=CC(=O)N1CCC[C@@H](n2nc(-c3ccc(Oc4ccccc4)cc3)c3cncc(C#N)c32)C1` on TXK (Homo sapiens, UniProt P42681)?
Out: < 0.1 µM

In: Hi! What's the reported IC50 for `CC#CC(=O)N1CC[C@@H](c2nc(-c3ccc(Oc4ccccc4)cc3)c3cnccn23)C1` on TXK (Homo sapiens, UniProt P42681)?
Out: 0.1 to 0.5 µM

In: Hi! What's the reported IC50 for `C=CC(=O)N1CC2(CC(n3nc(-c4ccc(Oc5ccccc5)cc4)c4cncnc43)C2)C1` on TXK (Homo sapiens, UniProt P42681)?
Out: 0.1 to 0.5 µM

In: Hi! What's the reported IC50 for `C=CC(=O)N1CCC[C@@H](n2nc(-c3ccc(Oc4ccccc4)cc3)c3cncc(F)c32)C1` on TXK (Homo sapiens, UniProt P42681)?
Out: < 0.1 µM

In: Hi! What's the reported IC50 for `C=CC(=O)N1CC[C@@H](n2nc(-c3ccc(Oc4ccccc4)cc3)c3cncnc32)C1` on TXK (Homo sapiens, UniProt P42681)?
Out: < 0.1 µM

In: Hi! What's the reported IC50 for `C=CC(=O)N1CCC[C@H]1Cn1nc(-c2ccc(Oc3ccccc3)cc2)c2cncc(F)c21` on TXK (Homo sapiens, UniProt P42681)?
Out: < 0.1 µM

In: Hi! What's the reported IC50 for `C=CC(=O)N1CCC[C@@H](n2nc(-c3ccc(Oc4ccccc4F)cc3)c3cncnc32)C1` on TXK (Homo sapiens, UniProt P42681)?
Out: < 0.1 µM

In: Hi! What's the reported IC50 for `C=CC(=O)N1CCC[C@@H](n2nc(-c3ccc(Oc4ccccc4)c(F)c3)c3cncnc32)C1` on TXK (Homo sapiens, UniProt P42681)?
Out: < 0.1 µM

In: Hi! What's the reported IC50 for `O=C(C#CC1CC1)N1CC2(CC(n3nc(-c4ccc(Oc5ccccc5)cc4)c4cncnc43)C2)C1` on TXK (Homo sapiens, UniProt P42681)?
Out: > 0.5 µM

In: Hi! What's the reported IC50 for `C=CC(=O)N1CC(C)(C)C[C@H]1Cn1nc(-c2ccc(Oc3ccccc3)cc2)c2cncnc21` on TXK (Homo sapiens, UniProt P42681)?
Out: < 0.1 µM

* * *

Consider the following compounds; for each one, report its IC50.
# target_system: ITK (Homo sapiens, UniProt Q08881)
# Sequence (Q08881 1-620): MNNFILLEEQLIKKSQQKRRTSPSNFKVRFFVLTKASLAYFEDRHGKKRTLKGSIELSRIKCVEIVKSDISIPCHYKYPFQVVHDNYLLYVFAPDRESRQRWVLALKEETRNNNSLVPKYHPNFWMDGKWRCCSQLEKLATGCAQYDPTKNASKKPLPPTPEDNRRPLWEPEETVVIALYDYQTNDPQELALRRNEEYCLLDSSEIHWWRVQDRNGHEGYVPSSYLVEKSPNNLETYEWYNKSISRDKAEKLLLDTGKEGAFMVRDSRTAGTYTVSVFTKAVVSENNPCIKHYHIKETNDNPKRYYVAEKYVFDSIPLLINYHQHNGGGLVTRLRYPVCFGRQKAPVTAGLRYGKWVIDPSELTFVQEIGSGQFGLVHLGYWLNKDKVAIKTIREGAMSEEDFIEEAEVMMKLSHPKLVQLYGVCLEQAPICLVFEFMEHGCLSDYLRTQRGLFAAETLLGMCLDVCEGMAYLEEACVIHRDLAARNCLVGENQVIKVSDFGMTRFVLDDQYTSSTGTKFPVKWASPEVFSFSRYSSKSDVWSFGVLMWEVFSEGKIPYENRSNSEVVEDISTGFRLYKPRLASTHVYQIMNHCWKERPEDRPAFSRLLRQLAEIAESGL

In: Hi! What's the reported IC50 for `C=CC(=O)N1CCC[C@@H](n2nc(-c3ccc(Oc4ccccc4)cc3)c3cnc(N)nc32)C1` on ITK (Homo sapiens, UniProt Q08881)?
Out: > 500 nM

In: Hi! What's the reported IC50 for `COCC#CC(=O)N1CC2(CC(n3nc(-c4ccc(Oc5ccccc5)cc4)c4cncnc43)C2)C1` on ITK (Homo sapiens, UniProt Q08881)?
Out: > 500 nM

In: Hi! What's the reported IC50 for `C=CC(=O)N1CCC[C@H]1Cn1nc(-c2ccc(Oc3cccc(C(F)F)c3)cc2)c2cncnc21` on ITK (Homo sapiens, UniProt Q08881)?
Out: > 500 nM

* * *

# target_system: RLK (Homo sapiens, UniProt P42681)
# Sequence (P42681 1-527): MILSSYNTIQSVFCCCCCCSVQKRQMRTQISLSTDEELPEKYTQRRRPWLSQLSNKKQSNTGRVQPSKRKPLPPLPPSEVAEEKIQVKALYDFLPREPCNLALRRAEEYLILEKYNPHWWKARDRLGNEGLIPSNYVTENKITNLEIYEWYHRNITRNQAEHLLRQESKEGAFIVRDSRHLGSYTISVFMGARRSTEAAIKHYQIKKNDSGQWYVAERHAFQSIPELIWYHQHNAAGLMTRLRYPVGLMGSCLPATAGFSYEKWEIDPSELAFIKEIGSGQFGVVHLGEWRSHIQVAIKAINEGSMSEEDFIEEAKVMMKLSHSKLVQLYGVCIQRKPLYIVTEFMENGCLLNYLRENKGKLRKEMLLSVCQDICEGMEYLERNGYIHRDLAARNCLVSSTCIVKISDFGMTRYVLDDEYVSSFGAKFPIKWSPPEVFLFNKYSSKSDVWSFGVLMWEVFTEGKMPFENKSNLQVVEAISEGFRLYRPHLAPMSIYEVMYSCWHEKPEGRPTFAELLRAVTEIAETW
pIC50: −log10 of the molar value.
measured_parameter: pIC50

In: Hi! What's the reported pIC50 for `C=CC(=O)N1CCC[C@@H](n2nc(-c3ccc(Oc4ccccc4)cc3)c3cnc(N)nc32)C1` on RLK (Homo sapiens, UniProt P42681)?
Out: 6.30 to 7.00

* * *

Parameter 'readout' = IC50; parameter 'system' = UniProt:Q06187.
Sequence (Q06187 whole entry): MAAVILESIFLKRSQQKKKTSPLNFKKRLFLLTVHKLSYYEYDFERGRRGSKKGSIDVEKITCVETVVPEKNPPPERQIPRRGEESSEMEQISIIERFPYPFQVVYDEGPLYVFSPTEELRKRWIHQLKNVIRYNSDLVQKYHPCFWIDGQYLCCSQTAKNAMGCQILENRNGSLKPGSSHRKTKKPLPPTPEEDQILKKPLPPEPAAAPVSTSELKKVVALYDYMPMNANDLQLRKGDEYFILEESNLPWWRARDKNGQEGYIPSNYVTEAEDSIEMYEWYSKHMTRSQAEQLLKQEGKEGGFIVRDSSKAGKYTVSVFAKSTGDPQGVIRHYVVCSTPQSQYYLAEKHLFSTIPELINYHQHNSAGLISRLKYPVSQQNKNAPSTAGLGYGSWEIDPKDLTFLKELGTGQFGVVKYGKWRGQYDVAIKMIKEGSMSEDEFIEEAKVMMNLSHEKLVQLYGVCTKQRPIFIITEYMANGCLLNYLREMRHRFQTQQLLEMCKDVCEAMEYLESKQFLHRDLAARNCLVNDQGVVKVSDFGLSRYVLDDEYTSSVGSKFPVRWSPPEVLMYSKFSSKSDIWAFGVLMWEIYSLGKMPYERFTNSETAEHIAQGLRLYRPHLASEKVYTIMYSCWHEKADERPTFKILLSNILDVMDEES

In: What value of measured IC50 is listed for `C=C(F)C(=O)N1CCC[C@@H](n2nc(-c3ccc(Oc4ccccc4)cc3)c3cncnc32)C1` ?
Out: 100 to 500 nM

In: What value of measured IC50 is listed for `CC#CC(=O)N1CCC[C@H]1c1nc(-c2ccc(Oc3ccccc3)cc2)c2cnccn12` ?
Out: > 500 nM

In: What value of measured IC50 is listed for `CC#CC(=O)N[C@H]1C[C@H](n2nc(-c3ccc(Oc4ccccc4)cc3)c3cncnc32)C1` ?
Out: < 100 nM

In: What value of measured IC50 is listed for `C=CC(=O)N1CCC[C@H]1Cn1nc(-c2ccc(Oc3ccccc3)cc2)c2cncc(C#N)c21` ?
Out: < 100 nM

In: What value of measured IC50 is listed for `C=CC(=O)Nc1ccccc1Cn1nc(-c2ccc(Oc3ccccc3)cc2)c2cncnc21` ?
Out: < 100 nM

In: What value of measured IC50 is listed for `C=CC(=O)N1CC(C)(C)C[C@H]1Cn1nc(-c2ccc(Oc3ccccc3)cc2)c2cncnc21` ?
Out: < 100 nM

In: What value of measured IC50 is listed for `CN(C)C/C=C/C(=O)N1CC[C@@H](n2nc(-c3ccc(Oc4ccccc4)cc3)c3cncnc32)C1` ?
Out: < 100 nM

In: What value of measured IC50 is listed for `C=CC(=O)N1CCC[C@H]1c1nc(-c2ccc(Oc3ccccc3)cc2)c2cnccn12` ?
Out: < 100 nM
